# System: LXRb:RXRa (NR concentration 270 nM, RXRa partner concentration 90 nM)
# assay_details: PBM binding z-score (relative to random genomic background probes); higher = stronger binding; sequences stand for … in GC…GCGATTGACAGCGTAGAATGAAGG
Could you please report measured PBM binding z-score for the items listed next?

Ask: Recorded PBM binding z-score of GGACCGAGGGCATTCGAGTTGATAGCATGGCGAT , please.
Result: 0.133

Ask: What about ACAGACAGGTGATGAAGGTTACTCAGGCTATCAT ?
Result: 0.276

Ask: Same read-out for TCTGCTAGGTCAGTTGGTCAGCTAACGAGCTGCC ?
Result: 0.299

Ask: What about this sequence? CGTCCATGGTCAGCAGGTCAGTGAAAGCGACGTG
Result: -0.0301

Ask: Could you do the same for CCTTACGGGTCACGAGGTGATAGCACGACGAGCG , please?
Result: 3.42

Ask: What about this sequence? CATAAAGGGTCAGCTAGGCCAGAGTAGGGACGGC
Result: 2.74

Ask: # repeat for ACTATTAGTTGACTTATGGCAACCGATACGACGC
Result: 0.682

Ask: // next record GCGACTGGGGCAAGGCAGGTTACCATAAGGTTGG
Result: -0.0825

Ask: Do the same for TCGCCTAGGTCATGCGGGCCAGTATAGTGTCGGC please
Result: 1.72

Ask: ACTCGGAGGACAAAGGTCCGAGCTACGCCAGTGA ?
Result: -0.654

Ask: Do the same for CGTCCAAGGTCAAGGTCAGTGAGAGAGACTCGAA please
Result: 4.59

Ask: Now give it for GTACCAAGGTGAATAAGTCGTTGATGAGTAGGCG too.
Result: -0.0627

Ask: Again, but for CCTACTGGGTCATCAGGTCATTGATATCAACGTT
Result: 3.19

Ask: Now try GCTGCTAGGTCAGGTTAGTCAGCTAACGGGTACG .
Result: 0.282

Ask: Let us now turn to GCAAACAGGTGAAACGCAGGTAACTCAGGGTGGC
Result: -0.425

Ask: # repeat for TTACCAAGGTGAGCTGAGGACGTTGATCCAACTC
Result: -0.542

Ask: Next up: GTAGACAGGTGAAACGCAGGTAACTCAGGGTGGC
Result: -0.0403

Ask: What do we get for ATCTCTAGGTATAAGTTCAGTGAATCCCGAGGAT ?
Result: 0.379

Ask: Same for CCGACTGGGGCATAACGTTACCATAAGCCAGCCC
Result: -0.205

Ask: Now the sequence TCTTGTAGATCAACAGTAGGTTAAGAAAGATCGA
Result: 0.659

Ask: Ok, now CGAACTAGGTCAAGGACTGTGAATCTCCGCACGC
Result: 1.36

Ask: Param item: ACTATTAGTTTAGACGAGGGCAACCGATAGGTTG
Result: 0.275

Ask: Proceed to TCTCGGAGGACGCGAAGGTCAGAGCTTTCCAGAG
Result: 0.715

Ask: What do we get for ATATGTTGGTTAGCTGGGGTCATTCAGACTAGGC ?
Result: 4.32

Ask: Proceed to TCGAGTAGGTTACCAATGGGACATTCAGCTTTCT
Result: 0.366

Ask: Try CGTCCAAGGTCAAGGTCTGTGAAAGAGACTCGAA next.
Result: 3.92
